Test system: Candida albicans
assay.summary: Antifungal activity against Candida albicans assessed as diameter of zone inhibition by disc diffusion method; also: test concentration or dose not given here
Format: functional
observation.type: inhibition zone (IZ) (mm)
Provide the reading as a plain figure in mm.

>  <compound>
CCOC(=O)c1c(C(=O)OCC)c2cc(C)ncn2c1C(=O)c1ccc(Br)cc1

>  <observation.type>
inhibition zone (IZ)

>  <observed.result>
22

$$$$

q: Which inhibition zone (IZ) value belongs to Cc1ccc(C(=O)C2C3C(=O)N(c4ccccc4)C(=O)C3C3C=CC=NN32)cc1 (centres undefined) ?
a: 18

q: Which inhibition zone (IZ) value belongs to CCOC(=O)c1cc(C(=O)c2ccc(C)cc2)n2nc(C)c3ccccc3c12 ?
a: 18

q: Which inhibition zone (IZ) value belongs to CC1=CC2C(C#N)CC(C(=O)c3ccc([N+](=O)[O-])cc3)N2C=N1 (centres undefined) ?
a: 24

q: Which inhibition zone (IZ) value belongs to CN(C)C=O [DIMETHYLFORMAMIDE] ?
a: 16

q: Which inhibition zone (IZ) value belongs to Cc1ccc(C(=O)C2C3C(=O)N(c4ccccc4)C(=O)C3C3c4ccccc4C=NN23)cc1 (centres undefined) ?
a: 18
